H1.0 immunofluorescence intensity for assorted compounds
- Tested on: TDF
- assay_procedure: H1.0 immunofluorescence intensity relative to DMSO (% of DMSO); higher = stronger H1.0 induction, active = 120 or more
- condition_context: concentration: 10 µM; 24 h
Respond numerically, and do not add a unit to the figure.

# returns recorded H1.0 immunofluorescence intensity (system: TDF) for O=C(O)Cc1c[nH]c2ccc(O)cc12 [(5-hydroxy-3H-indol-3-yl)acetic acid]
94.7

Which measured H1.0 immunofluorescence intensity belongs to CNCCC(Oc1ccccc1OC)c1ccccc1.Cl (centres undefined) [Nisoxetine hydrochloride] , tested on TDF?
99.4

Lab note: need H1.0 immunofluorescence intensity with TDF for entry CCN1CCCC1CNC(=O)c1cc(S(N)(=O)=O)ccc1OC (single isomer, unassigned; (-)) [(-)-Sulpiride] , please look it up.
90.9

What measured H1.0 immunofluorescence intensity is associated with O=c1c(O)c(-c2ccccc2O)oc2cc(O)cc(O)c12 [Datiscetin] on TDF?
92.1

====

# H1.0 immunofluorescence intensity values compiled below
- Test system: HCC1569
- assay_procedure: H1.0 immunofluorescence intensity relative to DMSO (% of DMSO); higher = stronger H1.0 induction, active = 140 or more
- condition_context: concentration: 10 µM; 24 h
No unit in the answer, only the number.

compound="CCC1(O)CC(OC2CC(N(C)C)C(OC3CC(O)C(OC4CCC(=O)C(C)O4)C(C)O3)C(C)O2)c2c(cc3c(c2O)C(=O)c2c(O)cccc2C3=O)C1C(=O)OC (stereo not drawn) [Aclarubicin]" value_measured=210
compound="CCCCCC=CCC=CCC=CCCCCC(=O)O [6(Z), 9(Z), 12(Z)-Octadecatrienoic Acid]" value_measured=105
compound="Cl.Cl.NCCNc1ncc(C(N)=O)c(Nc2cccc(C(F)(F)F)c2)n1.O.O [Syk Inhibitor II]" value_measured=148
compound=Cc1cc(C(C)(C)C)c(O)c(C(C)(C)C)c1 value_measured=99
compound="NC/C=C\\C(=O)O [cis-4-Aminocrotonic acid]" value_measured=88.1
compound="c1ccc2c(Cc3c[nH]c4ccccc34)c[nH]c2c1 [Diindolylmethane]" value_measured=91.6
compound=CC1=c2[nH]c3c(c2CCN1)C=CC(=O)C=3.Cl.O.O value_measured=144

Could you now consider this next compound?
So what does the record say about H1.0 immunofluorescence intensity for "CC[C@@]1(O)C(=O)OCc2c1cc1n(c2=O)Cc2cc3c(CN(C)C)c(O)ccc3nc2-1" ?
142

====

- Test system: TDF
- assay_procedure: cell number relative to DMSO (% of DMSO); higher = more cells (less growth inhibition / toxicity)
- condition_context: concentration: 10 µM; 24 h
Outcome: fulfilled for cell number of at least 100; not fulfilled for anything lower.

compound="Brc1ccc(C2CN3CCSC3=N2)cc1.O=C(O)C(=O)O (stereo not drawn) [S(-)-p-Bromotetramisole oxalate]" assigned_class=fulfilled

Say whether CN(C)CCOC(c1ccccc1)c1ccccc1.Cl [Diphenhydramine hydrochloride] shows cell number of 100 or more.
fulfilled

Please indicate if the recorded cell number for Cc1ccc(NC2=CC(=O)c3sc(C)nc3C2=O)cc1 [Cdk4 Inhibitor III] meets or exceeds 100.
not fulfilled

Reported cell number at or above 100? O=c1cc(-c2ccccc2)oc2cc(O)c(O)cc12 [6,7-Dihydroxyflavone]
not fulfilled

Answer whether cell number of CN1CCCC1c1cccnc1 (single isomer, unassigned; (-)) [(-)-Nicotine] is greater than or equal to 100.
fulfilled

Please check the record "Cc1cnc(NC(=O)C2=C(O)c3ccccc3S(=O)(=O)N2C)s1" and state if its cell number is at or above 100.
fulfilled

Hello, the source for this data is the supplement of paper PMC7156485, in case you need it.
